Molecular target: T1, Human Notch4-NRR domain Fc fusion protein (human, UniProt Q99466 1046-1445, limits assumed)
T1 construct: Expressed in a CHO cell line, used from culture supernatant; 1 is named; also called Human Notch4-NRR Fusion Protein; not shown: Fc
T1 sequence: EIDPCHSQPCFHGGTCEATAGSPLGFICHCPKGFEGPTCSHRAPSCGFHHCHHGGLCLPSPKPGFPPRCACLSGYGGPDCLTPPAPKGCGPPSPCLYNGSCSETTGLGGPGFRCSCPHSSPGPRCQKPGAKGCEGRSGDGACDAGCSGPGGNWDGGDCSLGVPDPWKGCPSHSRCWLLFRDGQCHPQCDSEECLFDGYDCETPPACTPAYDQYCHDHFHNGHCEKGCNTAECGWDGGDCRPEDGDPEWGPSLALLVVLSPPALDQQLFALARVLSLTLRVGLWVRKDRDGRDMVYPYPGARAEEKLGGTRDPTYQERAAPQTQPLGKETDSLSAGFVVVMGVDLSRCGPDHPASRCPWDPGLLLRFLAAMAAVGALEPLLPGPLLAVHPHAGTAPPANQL
Experiment: SPR (Biacore) as for Table 30; Notch4-NRR-Fc captured, antibody injected; averaged, N=4
readout-type: kon
Please state the value followed by its unit.

The binder identified as HK2L1 (antibody, human IgG2, kappa, V domains shown, Humanized IgG2 (V234A, G237A)/κ; also called No. 11) VH: EVQLVESGGGLVQPGGSLRLSCAASGFTFSSYGMSWVRQAPGKGLELVSTINSNGGRTYYPDSVKGRFTISRDNSKNTLYLQMGSLRAEDMAVYYCARDQGFAYWGQGTLVTVSS VL: DIQMTQSPSSLSASVGDRVTITCKASQDVGTAVAWYQQKPGKVPKLLIYWASTRHTGVPSRFSGSGSGTDFTLTISSLQPEDVATYYCQQYSSYPWTFGQGTKVEIKR registered its kon at 875000 M⁻¹ s⁻¹

The binder identified as HA2L1 (antibody, human IgG2, kappa, V domains shown, Humanized IgG2 (V234A, G237A)/κ; also called No. 26) VH: EVQLVESGGGLVQPGGSLRLSCAASGFTFSSYGMSWVRQAPGKGLELVSTINSNGGRTYYANSVKGRFTISRDNSKNTLYLQMGSLRAEDMAVYYCARDQGFAYWGQGTLVTVSS VL: DIQMTQSPSSLSASVGDRVTITCKASQDVGTAVAWYQQKPGKVPKLLIYWASTRHTGVPSRFSGSGSGTDFTLTISSLQPEDVATYYCQQYSSYPWTFGQGTKVEIKR registered its kon at 949000 M⁻¹ s⁻¹

The binder identified as HK3L1 (antibody, human IgG2, kappa, V domains shown, Humanized IgG2 (V234A, G237A)/κ; also called No. 16) VH: EVQLVESGGGLVQPGGSLRLSCAASGFTFSSYGMSWVRQAPGKGLELVATINSNGGRTYYPDSVKGRFTISRDNSKNTLYLQMGSLKAEDMAVYYCARDQGFAYWGQGTLVTVSS VL: DIQMTQSPSSLSASVGDRVTITCKASQDVGTAVAWYQQKPGKVPKLLIYWASTRHTGVPSRFSGSGSGTDFTLTISSLQPEDVATYYCQQYSSYPWTFGQGTKVEIKR registered its kon at 783000 M⁻¹ s⁻¹

The binder identified as HA2L2 (antibody, human IgG2, kappa, V domains shown, Humanized IgG2 (V234A, G237A)/κ; also called No. 27) VH: EVQLVESGGGLVQPGGSLRLSCAASGFTFSSYGMSWVRQAPGKGLELVSTINSNGGRTYYANSVKGRFTISRDNSKNTLYLQMGSLRAEDMAVYYCARDQGFAYWGQGTLVTVSS VL: DIQMTQSPSSLSASVGDRVTITCKASQDVGTAVAWYQQKPGKVPKLLIYWASTRHTGVPSRFSGSGSGTDFTLTISSLQPEDVATYFCQQYSSYPWTFGQGTKVEIKR registered its kon at 1.63e+06 M⁻¹ s⁻¹
